Record form. Attribute: IC50. Fill in for each entry.
Target: UniProtKB Q9N6S8
Sequence (Q9N6S8 whole entry): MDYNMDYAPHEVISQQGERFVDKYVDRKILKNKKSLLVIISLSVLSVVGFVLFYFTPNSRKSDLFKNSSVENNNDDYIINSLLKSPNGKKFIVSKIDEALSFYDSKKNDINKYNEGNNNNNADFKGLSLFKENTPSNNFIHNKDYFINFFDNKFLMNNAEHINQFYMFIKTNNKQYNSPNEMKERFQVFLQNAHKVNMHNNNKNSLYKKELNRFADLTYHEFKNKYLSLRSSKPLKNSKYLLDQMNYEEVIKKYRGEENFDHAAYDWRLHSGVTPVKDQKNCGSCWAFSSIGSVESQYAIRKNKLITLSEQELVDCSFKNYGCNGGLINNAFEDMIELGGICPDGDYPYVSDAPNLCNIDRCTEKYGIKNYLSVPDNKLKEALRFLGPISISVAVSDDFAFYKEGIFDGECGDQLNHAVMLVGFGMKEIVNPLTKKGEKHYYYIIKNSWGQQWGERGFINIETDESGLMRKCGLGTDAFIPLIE
Assay: Inhibition of Plasmodium falciparum trophozite extracts FP-2
*1 amine or outer side, *2 acyl side, *3 side chain or, on linkers, in order; H or OH if unused. Where a SMILES comes first, the peptide text is derived from it. [ ]: non-standard residue; d: D form. The star is where a group is joined. hPhe = N[C@@H](CCc1ccccc1)C(=O)O; Morpholide = C1CN(*)CCO1; Cbz = O=C(OCc1ccccc1)*; CO = O=C([*:1])[*:2]; CH2F = FC*
One number for each entry, in nM.

// known answers, use as guide
                                   molecule  metric  unit_abbrev  result_number
0  CC(C)C[C@H](NC(=O)N1CCOCC1)C(=O)N[C@@H](CCc1ccccc1)C(=O)CF ({Morpholide-CO}-Leu-[hPhe]-CH2F)    IC50           nM           0.42
1  N=C(N)NCCC[C@H](NC(=O)[C@H](Cc1ccccc1)NC(=O)OCc1ccccc1)C(=O)CF (Cbz-Phe-Arg-CH2F)    IC50           nM           0.36

Task: I'd like to know its IC50. The molecule in question is O=C(CF)[C@H](CCc1ccccc1)NC(=O)[C@H](Cc1ccccc1)NC(=O)N1CCOCC1 ({Morpholide-CO}-Phe-[hPhe]-CH2F)
Output: 3
